Measured binding signal, listed per entry.
biological target: RELB subunit;p50 subunit (Homo sapiens;Homo sapiens, UniProt Q01201;P19838 120-401;7-356); test: protein binding microarray; high values mean tight binding; settings: dsDNA, one strand shown
observation.type: binding signal (z-score)

{"sequence.data": "CAGTTTGCCCC", "quantity.unit": "z-score", "reported.measurement": 0.532}
{"sequence.data": "GGAGTAATCCC", "quantity.unit": "z-score", "reported.measurement": -0.277}
{"sequence.data": "GAGTTGGCCCT", "quantity.unit": "z-score", "reported.measurement": -0.243}
{"sequence.data": "AGAAGGCCCCT", "quantity.unit": "z-score", "reported.measurement": 0.0369}
{"sequence.data": "CGGAAAACCCC", "quantity.unit": "z-score", "reported.measurement": 1.23}
{"sequence.data": "CGAGTGCTCCT", "quantity.unit": "z-score", "reported.measurement": -1.37}
{"sequence.data": "GAATTCGCCCT", "quantity.unit": "z-score", "reported.measurement": -0.698}
{"sequence.data": "AAGATAATCCT", "quantity.unit": "z-score", "reported.measurement": -1.14}
{"sequence.data": "CGATAAGCCCC", "quantity.unit": "z-score", "reported.measurement": 0.334}
{"sequence.data": "AAAGGGTTCCT", "quantity.unit": "z-score", "reported.measurement": -1.03}
{"sequence.data": "GGAAATGTCCC", "quantity.unit": "z-score", "reported.measurement": 0.938}
{"sequence.data": "AGAATGACCCC", "quantity.unit": "z-score", "reported.measurement": -0.428}
{"sequence.data": "CGATGACCCCT", "quantity.unit": "z-score", "reported.measurement": -0.223}
{"sequence.data": "AGGTATACCCT", "quantity.unit": "z-score", "reported.measurement": -0.242}
{"sequence.data": "CGAATGTCCCC", "quantity.unit": "z-score", "reported.measurement": 1.07}
{"sequence.data": "AAAGGATCCCT", "quantity.unit": "z-score", "reported.measurement": -0.388}
{"sequence.data": "GGAAGCCTCCC", "quantity.unit": "z-score", "reported.measurement": -0.789}
{"sequence.data": "CGAGTTGCCCC", "quantity.unit": "z-score", "reported.measurement": 0.428}
{"sequence.data": "CGGATGGCCCT", "quantity.unit": "z-score", "reported.measurement": -0.367}
{"sequence.data": "CGATAGCTCCT", "quantity.unit": "z-score", "reported.measurement": -1.34}

* * *

molecular target: RELARELA (p65 homodimer) (Homo sapiens, UniProt Q04206 1-307); assay: protein binding microarray; high values mean tight binding; conditions: dsDNA, one strand shown
Sequence (Q04206 1-307): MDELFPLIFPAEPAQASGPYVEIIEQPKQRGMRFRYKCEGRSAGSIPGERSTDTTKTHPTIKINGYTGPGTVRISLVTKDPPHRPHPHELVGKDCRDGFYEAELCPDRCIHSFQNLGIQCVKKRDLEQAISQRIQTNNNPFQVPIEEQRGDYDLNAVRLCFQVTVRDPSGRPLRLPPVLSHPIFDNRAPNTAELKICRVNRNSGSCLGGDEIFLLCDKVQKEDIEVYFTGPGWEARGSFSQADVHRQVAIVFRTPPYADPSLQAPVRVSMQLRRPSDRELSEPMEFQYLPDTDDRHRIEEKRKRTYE

{"sequence.data": "GAAGGCCCCCC", "study.target": "RELARELA (p65 homodimer) (Homo sapiens, UniProt Q04206 1-307)", "binding signal [z-score]": -1.44}
{"sequence.data": "AGAAGCATCCC", "study.target": "RELARELA (p65 homodimer) (Homo sapiens, UniProt Q04206 1-307)", "binding signal [z-score]": -0.382}
{"sequence.data": "CAGTGGGTCCT", "study.target": "RELARELA (p65 homodimer) (Homo sapiens, UniProt Q04206 1-307)", "binding signal [z-score]": -0.388}
{"sequence.data": "CGATACCTCCC", "study.target": "RELARELA (p65 homodimer) (Homo sapiens, UniProt Q04206 1-307)", "binding signal [z-score]": -0.139}
{"sequence.data": "AGATGAATCCT", "study.target": "RELARELA (p65 homodimer) (Homo sapiens, UniProt Q04206 1-307)", "binding signal [z-score]": -0.706}
{"sequence.data": "AGGTACATCCT", "study.target": "RELARELA (p65 homodimer) (Homo sapiens, UniProt Q04206 1-307)", "binding signal [z-score]": -0.603}
{"sequence.data": "AAGGGACCCCC", "study.target": "RELARELA (p65 homodimer) (Homo sapiens, UniProt Q04206 1-307)", "binding signal [z-score]": -0.529}
{"sequence.data": "CGATTGACCCC", "study.target": "RELARELA (p65 homodimer) (Homo sapiens, UniProt Q04206 1-307)", "binding signal [z-score]": -0.827}
{"sequence.data": "CAAATCTCCCT", "study.target": "RELARELA (p65 homodimer) (Homo sapiens, UniProt Q04206 1-307)", "binding signal [z-score]": 0.0987}
{"sequence.data": "AAAAGGATCCT", "study.target": "RELARELA (p65 homodimer) (Homo sapiens, UniProt Q04206 1-307)", "binding signal [z-score]": -0.683}
{"sequence.data": "CGATTTCCCCT", "study.target": "RELARELA (p65 homodimer) (Homo sapiens, UniProt Q04206 1-307)", "binding signal [z-score]": 1.73}
{"sequence.data": "CGGAACACCCT", "study.target": "RELARELA (p65 homodimer) (Homo sapiens, UniProt Q04206 1-307)", "binding signal [z-score]": -0.222}
{"sequence.data": "CGGAGTATCCC", "study.target": "RELARELA (p65 homodimer) (Homo sapiens, UniProt Q04206 1-307)", "binding signal [z-score]": 0.97}
{"sequence.data": "CGAAGCATCCT", "study.target": "RELARELA (p65 homodimer) (Homo sapiens, UniProt Q04206 1-307)", "binding signal [z-score]": -1.05}
{"sequence.data": "CGGTAACTCCC", "study.target": "RELARELA (p65 homodimer) (Homo sapiens, UniProt Q04206 1-307)", "binding signal [z-score]": 1.08}
{"sequence.data": "CGAGTGCTCCT", "study.target": "RELARELA (p65 homodimer) (Homo sapiens, UniProt Q04206 1-307)", "binding signal [z-score]": -0.962}
{"sequence.data": "AGAATGTTCCT", "study.target": "RELARELA (p65 homodimer) (Homo sapiens, UniProt Q04206 1-307)", "binding signal [z-score]": 0.037}
{"sequence.data": "CGGGTTATCCC", "study.target": "RELARELA (p65 homodimer) (Homo sapiens, UniProt Q04206 1-307)", "binding signal [z-score]": 1.55}
{"sequence.data": "AAATTTGCCCT", "study.target": "RELARELA (p65 homodimer) (Homo sapiens, UniProt Q04206 1-307)", "binding signal [z-score]": 0.9}
{"sequence.data": "AGATTACCCCC", "study.target": "RELARELA (p65 homodimer) (Homo sapiens, UniProt Q04206 1-307)", "binding signal [z-score]": 0.372}

* * *

Target: RELB subunit;p52 subunit (Homo sapiens;Homo sapiens, UniProt Q01201;Q00653 120-401;4-332)
Sequence 1: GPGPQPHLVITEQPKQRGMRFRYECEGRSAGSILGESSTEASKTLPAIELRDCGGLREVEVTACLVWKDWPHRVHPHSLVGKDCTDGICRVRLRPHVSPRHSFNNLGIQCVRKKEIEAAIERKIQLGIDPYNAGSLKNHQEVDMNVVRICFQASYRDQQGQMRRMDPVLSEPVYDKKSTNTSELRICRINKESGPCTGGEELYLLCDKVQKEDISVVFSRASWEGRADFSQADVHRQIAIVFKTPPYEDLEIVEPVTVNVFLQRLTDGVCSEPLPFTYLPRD
Sequence 2: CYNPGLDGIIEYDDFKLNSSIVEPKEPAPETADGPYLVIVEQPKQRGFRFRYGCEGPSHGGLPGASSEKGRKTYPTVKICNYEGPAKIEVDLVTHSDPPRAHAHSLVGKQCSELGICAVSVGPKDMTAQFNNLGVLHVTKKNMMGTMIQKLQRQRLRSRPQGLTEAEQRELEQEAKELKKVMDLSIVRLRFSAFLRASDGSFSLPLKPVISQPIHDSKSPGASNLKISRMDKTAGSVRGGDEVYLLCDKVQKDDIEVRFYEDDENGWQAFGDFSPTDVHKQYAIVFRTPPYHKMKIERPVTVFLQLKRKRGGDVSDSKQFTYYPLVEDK
Experiment: protein binding microarray; high values mean tight binding
Conditions: dsDNA, one strand shown
Category key, based on recorded binding signal: low: < -0.2 z-score; intermediate: ≥ -0.2 z-score and < 1 z-score; high: ≥ 1 z-score

{"sequence.data": "CGAAGGACCCT", "assigned.category": "low"}
{"sequence.data": "AGAGGGACCCT", "assigned.category": "intermediate"}
{"sequence.data": "GAAATAGTCCC", "assigned.category": "intermediate"}
{"sequence.data": "CAGGTACCCCT", "assigned.category": "high"}
{"sequence.data": "GAGGAGCTCCT", "assigned.category": "low"}
{"sequence.data": "CGATGTCTCCT", "assigned.category": "low"}
{"sequence.data": "AAAGGAACCCC", "assigned.category": "intermediate"}
{"sequence.data": "GAGAAGCCCCT", "assigned.category": "high"}
{"sequence.data": "CGGAAGCTCCT", "assigned.category": "low"}
{"sequence.data": "AAGAGTACCCT", "assigned.category": "intermediate"}
{"sequence.data": "GAGTTAATCCC", "assigned.category": "intermediate"}
{"sequence.data": "AGGTTACCCCT", "assigned.category": "high"}
